System: NCI-H460 lung
Assay: NCI-60 one-dose screen, 48 h (100 = growth as untreated, 0 = no growth, -100 = all killed)
Details: 10 µM
Description: Growth inhibition of the NCI-H460 human Non-Small Cell Lung tumor cell line is measured as a screen for anti-cancer activity. Cells are grown in 96 well plates and exposed to the test compound for 48 hours. Compounds are tested at a single concentration, which is 10^-5 M for most compounds. The reported endpoint is percent growth (GI% or GIPRCNT), where numbers from 0 - 100% represent growth inhibition, and numbers from -100% - 0 represent cell death. […]
This is part of a sample that, as a whole, favours compounds with a hit. Of some 83,000 tested, about 20% had one in any assay.
# cutoff 20% applies to growth; >= gives MET, < gives NOT MET

Can COc1ccc(Nc2ccnc(NCCNc3ccnc4cc(Cl)ccc34)n2)cc1 be said to have growth at or above 20%?
MET

Consider next the molecule Oc1[nH]c2cc(Cl)ccc2c1/C=c1/ccc2c(c1)N=C(c1cc(F)cc(F)c1)N=2 in the same way.
NOT MET

Record: CCCCCCN1CCN(Cc2ccc(N(CC)CC)cc2)C(=O)C1=O
NOT MET

Param item: Cc1[nH]nc2c1C(c1cnn(C)c1)C(C#N)=C(N)O2 (stereo unspecified)
MET

Moving on to CN(C)N=Nc1nn(C(=O)Nc2ccc(Cc3ccccc3)cc2)c2ccccc12
NOT MET

Next: O=c1cc(-c2ccccc2)[nH]n1-c1nc2ccccc2[nH]1
MET

The origin of these recorded values is PubChem BioAssay (NCI).
